- Experimental Target: T1, HLA-A2/E7 (11-19) tetramer (human; HPV 16)
- T1 construct: also called E7(11-19) peptide-MHC tetramer; E7 (11-19)-loaded tetramer
- Method Description: tetramer flow cytometry; transfected 1:1 CD4+ and CD4+/CD8+ Jurkat-derived cells;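 note: cells transiently transfected with TCR plasmids, stained 48 h later with HLA-A*02:01 peptide-MHC tetramer plus anti-CD8 antibody, read by flow cytometry to assess CD8-independent tetramer binding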
Reported Property: % cells in E7 tet-/CD8- quadrant (%)

Binder: TCR 41 (codon optimized, cysteine modified version) (TCR, V domains shown) V domain 1: RKEVEQDPGPFNVPEGATVAFNCTYSNSASQSFFWYRQDCRKEPKLLMSVYSSGNEDGRFTAQLNRASQYISLLIRDSKLSDSATYLCVVTFALTGGFKTIFGAGTRLFVKA V domain 2: EPEVTQTPSHQVTQMGQEVILRCVPISNHLYFYWYRQILGQKVEFLVSFYNNEISEKSEIFDDQFSVERPDGSNFTLKIRSTKLEDSAMYFCASNPRDRVSYEQYFGPGTRLTVTE
Reported Property: % cells in E7 tet-/CD8- quadrant
Recorded Number: 47.9

Binder: TCR 44 (codon optimized, cysteine modified version) (TCR, V domains shown) V domain 1: GQNIDQPTEMTATEGAIVQINCTYQTSGFNGLFWYQQHAGEAPTFLSYNVLDGLEEKGRFSSFLSRSKGYSYLLLKELQMKDSASYLCAQYSGGYQKVTFGTGTKLQVIP V domain 2: DSGVTQTPKHLITATGQRVTLRCSPRSGDLSVYWYQQSLDQGLQFLIQYYNGEERAKGNILERFSAQQFPDLHSELNLSSLELGDSALYFCASSGTPDTQYFGPGTRLTVLE
Reported Property: % cells in E7 tet-/CD8- quadrant
Recorded Number: 55.7

Binder: TCR 45 (codon optimized, cysteine modified version) (TCR, V domains shown) V domain 1: GQQVMQIPQYQHVQEGEDFTTYCNSSTTLSNIQWYKQRPGGHPVFLIQLVKSGEVKKQKRLTFQFGEAKKNSSLHITATQTTDVGTYFCAGSSGAGSYQLTFGKGTKLSVIP V domain 2: GAGVSQSPSNKVTEKGKDVELRCDPISGHTALYWYRQRLGQGLEFLIYFQGNSAPDKSGLPSDRFSAERTGESVSTLTIQRTQQEDSAVYLCASSLYLGTTGELFFGEGSRLTVLE
Reported Property: % cells in E7 tet-/CD8- quadrant
Recorded Number: 41.3
